Exercise: for every item that follows, state its recorded RLU.
# TEST_SYSTEM: T1, apical domain of human CD71 (human, UniProt P02786 189-383, limits assumed)
# T1 construct: domain: apical domain; Screen 4 panned on human apical domains, the ELISA text says only 'apical domain'
# T1 sequence (P02786 189-383 limits assumed): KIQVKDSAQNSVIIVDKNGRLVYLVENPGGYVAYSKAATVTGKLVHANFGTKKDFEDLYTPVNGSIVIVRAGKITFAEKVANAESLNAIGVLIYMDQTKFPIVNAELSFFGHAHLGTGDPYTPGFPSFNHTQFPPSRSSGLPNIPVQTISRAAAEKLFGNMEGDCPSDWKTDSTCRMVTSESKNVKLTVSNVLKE
# ASSAY: primary ELISA; also: test concentration or dose not given here
Give bare numbers, in RLU.

BINDER	RLU / RLU
CD71-binding FN3 domain of SEQ ID NO: 534 (designed binder) MLPAPKNLVVSRVTEDSARLSWTAPDAAFDSFFIGYLEPQPPGEAIHLLVPGSERSYDLTGLKPGTEYNVTIQGVKGGFPSGPLQASFTT	5.76e+06
CD71-binding FN3 domain of SEQ ID NO: 482 (designed binder) MLPAPKNLIVSRVTEDSARLSWTAPDAAFDSFFIGYLEPQPPGEAIHLQVPGSERSYDLTGLKPGTEYNVTIQGVKGGFPSNPLHAEFTT	2.66e+06
CD71-binding FN3 domain of SEQ ID NO: 542 (designed binder) MLPAPKNLVVSRVTEDSARLSWTAPDAAFDSFFIGYLEPQPPGEAIELFVPGSERSYDLTGLKPGTEYNVTIQGVKGGFPSMPLSAIFTT	3e+06
CD71-binding FN3 domain of SEQ ID NO: 543 (designed binder) MLPAPKNLVVSRVTEDSARLSWTAPDAAFDSFFIGYLEPQPPGEAISLYVPGSERSYDLTGLKPGTEYNVTIQGVKGGFPSIPLVAVFTT	4.65e+06
CD71-binding FN3 domain of SEQ ID NO: 525 (designed binder) MLPAPKNLVVSRVTEDSARLSWTAPDAAFDSFFIGYLEPQPPGEAIALYVPGSERSYDLTGLKPGTEYNVTIQGVKGGFPSEPLVATFTT	5.93e+06

Kindly review the next binder as well.
# RLU lookup, item CD71-binding FN3 domain of SEQ ID NO: 464 (designed binder) MLPAPKNLVVSRVTEDSARLSWTAPDAAFDSFFIGYLEPQPPGEAIQLFVPGSERSYDLTGLKPGTEYNVTIQGVKGGFPSTPLVASFTT
5.68e+06
